Entry source: PubChem BioAssay AID248

Tested on: L1210 leukemia ip in BDF1 mice, survival T/C
Experiment: NCI In Vivo Anticancer Drug Screen. Data for tumor model L1210 Leukemia (intraperitoneal) in B6D2F1 (BDF1) mice
Conditions: endpoint: mean survival time; dose: 200.0 mg/kg/injection; schedule: Q04DX003 (ip); vehicle: saline with Tween-80; higher = longer survival
Inconclusive results and toxic doses are left out.
reportedMetric: T/C

[[record]]
compound = "O=P(O)(O)Cc1cccc2ccccc12"
reportedmetric = "T/C"
readoutvalue = "96 % of control"

[[record]]
compound = "O=C(NC(CBr)CCCBr)c1ccc([N+](=O)[O-])cc1 (stereo not given)"
reportedmetric = "T/C"
readoutvalue = "94 % of control"

[[record]]
compound = "CCOc1ccc(C(=O)Nc2c(C)cc(C)cc2C)cc1"
reportedmetric = "T/C"
readoutvalue = "93 % of control"

[[record]]
compound = "CC1(C)CC(=O)C=C(N2CCC(CCCC3CCN(C4=CC(=O)CC(C)(C)C4)CC3)CC2)C1"
reportedmetric = "T/C"
readoutvalue = "88 % of control"


Quick one: T/C of Cc1cc2c(cc1C)C(O)C(N1CCN(C)CC1)CCC2 (stereo not given) ?
92 % of control

Quick one: T/C of `Nc1ccc(Nc2ncnc3nc[nH]c23)cc1` ?
98 % of control

###

Test system: L1210 leukemia ip in BDF1 mice, survival T/C
Test: NCI In Vivo Anticancer Drug Screen. Data for tumor model L1210 Leukemia (intraperitoneal) in B6D2F1 (BDF1) mice
Conditions: endpoint: mean survival time; dose: 100.0 mg/kg/injection; schedule: Q01DX001 (ip); vehicle: Klucel (hydroxypropylcellulose) (HPC); higher = longer survival
Inconclusive results and toxic doses are left out.
A collection of compounds and their measured T/C

[[record]]
compound = "O=c1c(N=Nc2ccc(Br)cc2)c(O)n(-c2ccccc2)c(=S)n1-c1ccccc1"
readoutvalue = "105 % of control"

[[record]]
compound = "COc1ccc(NC(=O)CCc2ccc(N3C(N)=NC(N)=NC3(C)C)cc2)cc1S(=O)(=O)F"
readoutvalue = "106 % of control"

[[record]]
compound = "Cc1ccc(C(=O)CCCC(=O)O)c(O)c1"
readoutvalue = "96 % of control"

[[record]]
compound = "CN(C)C=Nc1ccc(Cl)c2ccccc12"
readoutvalue = "99 % of control"

[[record]]
compound = "CCCCSP(=S)(SCCCC)SCCCC"
readoutvalue = "94 % of control"


Quick one: T/C of `Cc1cc(C)c(N(CC(=O)O)S(=O)(=O)c2ccccc2)c(Sc2ccccc2)c1` ?
113 % of control

Quick one: T/C of O=C(c1ccccc1)C1OC1(CBr)c1ccccc1 (stereo not given) ?
100 % of control

Quick one: T/C of `C=Cc1cnc(NC(C)=O)c(C#N)n1` ?
103 % of control

###

Tested on: L1210 leukemia ip in BDF1 mice, survival T/C
Assay: NCI In Vivo Anticancer Drug Screen. Data for tumor model L1210 Leukemia (intraperitoneal) in B6D2F1 (BDF1) mice
Conditions: endpoint: mean survival time; dose: 200.0 mg/kg/injection; schedule: Q01DX009 (ip); vehicle: saline with Tween-80; higher = longer survival
Toxic doses and inconclusive results are not listed.
reportedMetric: T/C

Recorded results for 6 compounds are shown here.
[[record]]
compound = "O=C(N/N=C\\c1ccc(/C=N\\NC(=O)c2ccc(O)cc2)cc1)c1ccc(O)cc1"
testtarget = "L1210 leukemia ip in BDF1 mice, survival T/C"
reportedmetric = "T/C"
readoutvalue = "105 % of control"

[[record]]
compound = "NC(=O)CC(NC(=O)OCc1ccccc1)C(=O)OCc1ccccc1 (stereo not drawn)"
testtarget = "L1210 leukemia ip in BDF1 mice, survival T/C"
reportedmetric = "T/C"
readoutvalue = "95 % of control"

[[record]]
compound = "O=C(O)Cc1c[nH]c(=O)[nH]c1=O"
testtarget = "L1210 leukemia ip in BDF1 mice, survival T/C"
reportedmetric = "T/C"
readoutvalue = "103 % of control"

[[record]]
compound = "CC(C)c1ccc(/C=C\\C(=O)c2ccc(-c3ccccc3)cc2)cc1"
testtarget = "L1210 leukemia ip in BDF1 mice, survival T/C"
reportedmetric = "T/C"
readoutvalue = "106 % of control"

[[record]]
compound = "O=C(CN1CCOCC1)Nc1cccc(C(F)(F)F)c1"
testtarget = "L1210 leukemia ip in BDF1 mice, survival T/C"
reportedmetric = "T/C"
readoutvalue = "104 % of control"

[[record]]
compound = "CC(=O)CC(=O)NC1CCCCC1"
testtarget = "L1210 leukemia ip in BDF1 mice, survival T/C"
reportedmetric = "T/C"
readoutvalue = "100 % of control"


Quick one: T/C of CC(O)CSc1ccccc1 (stereo not drawn) ?
88 % of control

Quick one: T/C of `Cc1ccc(Nc2n[nH]c(=S)s2)cc1C` ?
92 % of control

Quick one: T/C of CCCCC(CC)COC(C)=O (stereo not drawn) ?
102 % of control

Quick one: T/C of `CC(=O)N/N=C/c1cccc([N+](=O)[O-])c1` ?
94 % of control

Quick one: T/C of `O=C(O)[C@@H]1C[C@H]1c1ccccc1` ?
87 % of control

Quick one: T/C of CCOC(=O)C1OC12c1cccc3cccc(c13)C21OC1C(=O)OCC (stereo not drawn) ?
90 % of control

Quick one: T/C of `Cc1cc(OCCOC(=O)Nc2ccc(C)c([N+](=O)[O-])c2)ccc1Cl` ?
87 % of control

Quick one: T/C of `O=[N+]([O-])c1cccc(OCCOc2ccccc2)c1` ?
102 % of control

Quick one: T/C of C=CCC1CC2CC(C1C)C2(C)C (stereo not drawn) ?
93 % of control

Quick one: T/C of `CCOc1ccc(Nc2cc([N+](=O)[O-])ccc2C(=O)O)cc1` ?
98 % of control

Quick one: T/C of `O=C(CNC(=O)c1ccccc1)N/N=C/c1cccc2ccccc12` ?
94 % of control

Quick one: T/C of `CCOc1ccccc1CC(=O)O` ?
98 % of control

Quick one: T/C of `CCCCOC(=O)CCC(C)=O` ?
100 % of control

Quick one: T/C of `CCOC(=O)CCSC` ?
92 % of control

Quick one: T/C of `O=Cc1ccc(O)c(Br)c1` ?
109 % of control

Quick one: T/C of `CC(C)CCS(=O)CCC(C)C` ?
96 % of control

Quick one: T/C of `CC(=N\O)/C(=N\O)C(=O)c1ccccc1` ?
95 % of control

Quick one: T/C of `COc1ccc(C)cc1NC(=O)OCCOc1ccc(Cl)c(C)c1` ?
93 % of control

Quick one: T/C of `O=C(Nc1cccc(C(F)(F)F)c1)Oc1ccc(Cl)cc1Cc1ccccc1` ?
93 % of control

Quick one: T/C of `C=CCOc1ccccn1` ?
98 % of control

Quick one: T/C of CC1OC2CCCCC2O1 (stereo not drawn) ?
94 % of control

Quick one: T/C of `Cc1nc2c(N)nn(C)c2nc1C` ?
102 % of control

###

Test system: L1210 leukemia ip in BDF1 mice, survival T/C
Test: NCI In Vivo Anticancer Drug Screen. Data for tumor model L1210 Leukemia (intraperitoneal) in B6D2F1 (BDF1) mice
Conditions: endpoint: mean survival time; dose: 400.0 mg/kg/injection; schedule: Q01DX009 (ip); vehicle: Klucel (hydroxypropylcellulose) (HPC); higher = longer survival
Inconclusive results and toxic doses are left out.
reportedMetric: T/C

Quick one: T/C of `Cc1c(C)c(Br)c(C)c(-c2c(C)c(C)c(C)c(Br)c2C)c1C` ?
90 % of control

Quick one: T/C of `CCN(CC)c1cc(Cl)c(C=O)cc1Br` ?
100 % of control

###

A collection of compounds and their measured T/C
Tested on: L1210 leukemia ip in BDF1 mice, survival T/C
Experiment: NCI In Vivo Anticancer Drug Screen. Data for tumor model L1210 Leukemia (intraperitoneal) in B6D2F1 (BDF1) mice
Settings: endpoint: mean survival time; dose: 12.5 mg/kg/injection; schedule: Q04DX003 (ip); vehicle: saline; higher = longer survival
Toxic doses and inconclusive results are not listed.

Recorded results for 3 compounds are shown here.
[[record]]
compound = "C[CH2][Sn]([CH2]C)([O]S(=O)(=O)CC12CCC(CC1=O)C2(C)C)[O]S(=O)(=O)CC12CCC(CC1=O)C2(C)C"
readoutvalue = "114 % of control"

[[record]]
compound = "CN(C)N=C1CCC(=NN(C)C)CC1"
readoutvalue = "100 % of control"

[[record]]
compound = "[Cl][Pt+2][Cl].[NH-]CC1CCCC[N-]1 (stereo unspecified)"
readoutvalue = "122 % of control"


Quick one: T/C of `CCOP(=O)(NN(C)C)OCC` ?
96 % of control

Quick one: T/C of `N=C(N)c1ccc(-c2cc(-c3ccc(C(=N)N)cc3)on2)cc1` ?
103 % of control

Quick one: T/C of `CC(C)(C)C1=C[P+](c2ccccc2)(c2ccccc2)C(C(C)(C)C)=C[P+]1(c1ccccc1)c1ccccc1` ?
96 % of control
